- measured.target: EHMT1 (Homo sapiens, UniProt Q9H9B1)
- Sequence (Q9H9B1 whole entry, species assumed): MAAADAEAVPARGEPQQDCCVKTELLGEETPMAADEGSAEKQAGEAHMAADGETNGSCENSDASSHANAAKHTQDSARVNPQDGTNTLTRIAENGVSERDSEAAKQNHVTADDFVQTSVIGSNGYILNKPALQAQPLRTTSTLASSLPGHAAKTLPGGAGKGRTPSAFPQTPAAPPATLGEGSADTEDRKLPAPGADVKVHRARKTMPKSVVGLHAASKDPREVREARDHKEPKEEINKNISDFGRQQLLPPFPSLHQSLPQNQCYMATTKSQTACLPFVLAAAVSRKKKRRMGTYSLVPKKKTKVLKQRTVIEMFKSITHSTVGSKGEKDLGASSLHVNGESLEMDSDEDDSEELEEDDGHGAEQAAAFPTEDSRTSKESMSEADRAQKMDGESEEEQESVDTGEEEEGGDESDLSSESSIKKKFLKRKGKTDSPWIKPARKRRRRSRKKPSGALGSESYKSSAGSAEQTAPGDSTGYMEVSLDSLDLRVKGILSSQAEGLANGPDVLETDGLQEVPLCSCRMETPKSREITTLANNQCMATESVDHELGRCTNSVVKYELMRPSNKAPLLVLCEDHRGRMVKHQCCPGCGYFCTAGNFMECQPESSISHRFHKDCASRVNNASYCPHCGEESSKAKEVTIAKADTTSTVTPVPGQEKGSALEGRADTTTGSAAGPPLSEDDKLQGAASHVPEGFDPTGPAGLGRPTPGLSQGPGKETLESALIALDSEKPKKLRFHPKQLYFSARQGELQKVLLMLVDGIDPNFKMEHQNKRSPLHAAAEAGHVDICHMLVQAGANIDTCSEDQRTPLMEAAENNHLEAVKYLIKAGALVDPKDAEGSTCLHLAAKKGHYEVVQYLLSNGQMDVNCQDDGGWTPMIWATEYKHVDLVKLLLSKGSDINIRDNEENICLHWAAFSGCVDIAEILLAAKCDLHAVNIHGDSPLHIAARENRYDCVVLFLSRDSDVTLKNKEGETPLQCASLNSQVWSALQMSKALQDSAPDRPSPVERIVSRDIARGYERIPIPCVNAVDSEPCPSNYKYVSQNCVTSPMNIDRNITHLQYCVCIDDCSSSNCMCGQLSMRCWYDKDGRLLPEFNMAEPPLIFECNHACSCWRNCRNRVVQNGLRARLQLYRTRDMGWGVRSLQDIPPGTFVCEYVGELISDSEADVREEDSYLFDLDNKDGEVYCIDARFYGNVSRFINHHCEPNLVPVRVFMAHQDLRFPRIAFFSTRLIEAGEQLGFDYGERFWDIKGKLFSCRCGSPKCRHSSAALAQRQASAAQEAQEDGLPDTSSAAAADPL
- assay.remarks: EHMT1 PEP
- Assay type: biochemical
Consider the following compounds; for each one, report its IC50.

Sample answers from the record:
Request: So what does the record say about IC50 for CNC1=Nc2cc(CNCCN3CCCC3)c(OC)cc2C12CCC2 [Compound 70] ?
Response: < 0.1 µM

Request: Which value of IC50 has been reported for CCNc1nc2cc(OCCCN3CCCC3)c(OC)cc2n1CC [Compound 39] in the records?
Response: < 0.1 µM

Request: Please give the measured IC50 for this compound: COc1cc2nc[nH]c2cc1OCCCN1CCCC1 [Compound 51]
Response: 1 to 10 µM

Request: Please report the recorded IC50 for COc1cc2c(cc1OCCCN1CCCC1)nc(N)n2C(C)C [Compound 19] .
Response: < 0.1 µM

Would you kindly look at the next entry?
Request: Look at this compound and give its reported IC50. CNc1nc2cc(OC[C@H](O)CN3CCCC3)c(OC)cc2n1C1CCCC1 [Compound 38]
Response: < 0.1 µM
